Here, each record is paired with measured MIC data.
Test system: Staphylococcus aureus EUP MRSA002
Assay Overview: MIC panel of challenge pathogens (CLSI), EUP MRSA002
Assay type: cell-based
Details: EUPMRSA002; Staphylococcus aureus EUP MRSA002; read-out: 100% inhibition
Use µg/mL as the unit, but write only the number.

Field: example entries. Status: answers known.
Clc1ccc(-c2cc(-c3nnn[nH]3)sc2-c2ccc(Cl)cc2)cc1    1
Clc1ccc(Cc2sc(-c3nnn[nH]3)cc2-c2cccc(CC3CCCC3)c2)cc1    0.5
Cc1cc(Cl)ccc1-c1cc(-c2nnn[nH]2)sc1-c1ccc(Cl)cc1C    0.5
Cc1ccc(Cl)cc1-c1cc(-c2nnn[nH]2)sc1-c1cc(Cl)ccc1C    1
Cc1cc(Cl)ccc1-c1cc(-c2nnn[nH]2)sc1-c1ccc(C)c2ccccc12    0.5

Please look at the following compound next.
Value lookup for MIC; key = Fc1ccc(-c2cc(-c3nnn[nH]3)sc2-c2ccc(F)c3ccccc23)c2ccccc12
1

###

Catalogue of activity at 50 µM values
Subject Of Test: AcpS enzyme (Escherichia coli, UniProt P24224)
Sequence (P24224 whole entry): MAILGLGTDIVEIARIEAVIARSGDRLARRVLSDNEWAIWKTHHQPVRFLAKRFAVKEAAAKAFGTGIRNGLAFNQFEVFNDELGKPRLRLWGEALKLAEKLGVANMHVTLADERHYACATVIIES
Assay Overview: Measurement of AcpS inhibition ([3H]acetyl-CoA incorporation into apo-ACP)
Assay type: biochemical
Details: test compound 50 uM; % activity vs blank-subtracted counts
Answer in %, number only, no unit symbol.

Reference set (5 entries):
Cc1ccc(C2(c3cccc(Cl)c3)C=C(c3nnn[nH]3)SC2)c2ccccc12 (stereo not drawn)    5.86
c1ccc(-c2cc(-c3nnn[nH]3)sc2-c2ccccc2-c2ccoc2)c(-c2ccoc2)c1    63.6
Cc1cc(Cl)ccc1-c1ccc(-c2ccc(Cl)cc2C)c(-c2nnn[nH]2)c1    32.6
CC(C)c1ccccc1-c1cc(-c2nnn[nH]2)sc1-c1ccccc1C(C)C    34
Clc1ccc(Cc2sc(-c3nnn[nH]3)cc2-c2ccccc2-c2ccccc2)cc1    2.67

Need activity at 50 µM of Cc1ccc(Cl)cc1-c1cc(-c2nnn[nH]2)sc1-c1cc(Cl)ccc1C , thanks.
44.9

So what's the measured activity at 50 µM for this one? Fc1ccc(-c2cc(-c3nnn[nH]3)sc2Cc2ccc(Cl)cc2)c2ccccc12
2.13

Please give the measured activity at 50 µM for this compound: Cc1ccc(-c2cc(-c3nnn[nH]3)sc2-c2ccc(C)c(C)c2)cc1C
31.1

Field request: activity at 50 µM | item: FC(F)(F)c1ccccc1-c1cc(-c2nnn[nH]2)sc1-c1ccccc1C(F)(F)F
71.3

Endpoint output: activity at 50 µM of COc1ccc(-c2cc(-c3nnn[nH]3)sc2-c2ccc(OC)c(Cl)c2)cc1Cl . Value?
22.9

Can you share its activity at 50 µM? I mean this compound: c1ccc(-c2cc(-c3nnn[nH]3)sc2-c2ccccc2-c2ccsc2)c(-c2ccsc2)c1
7.01

Item CC(C)c1ccc(-c2cc(-c3nnn[nH]3)sc2-c2ccc(C(C)C)cc2)cc1 has what recorded activity at 50 µM?
37.3

Value lookup for activity at 50 µM; key = FC(F)(F)Oc1ccccc1-c1cc(-c2nnn[nH]2)sc1-c1ccccc1OC(F)(F)F
47.8

###

Test system: Staphylococcus aureus NRS383
Assay Overview: MIC panel of challenge pathogens (CLSI)
Format: cell-based
Details: Staphylococcus aureus NRS383; read-out: MIC50 (50%)
MIC50 values, listed per item

CCCCc1cccc(-c2cc(-c3nnn[nH]3)sc2Cc2ccc(Cl)cc2)c1    ≤ 0.25 µg/mL
CC(C)c1cc(Cl)ccc1-c1cc(C(=O)O)sc1-c1ccc(Cl)cc1C(C)C    ≤ 0.25 µg/mL
Cc1cc(Cl)ccc1-c1cc(-c2nnn[nH]2)sc1-c1ccc(C)c2ccccc12    0.5 µg/mL

Data request, read-out MIC50, for CC(C)c1cc(Cl)ccc1-c1cc(-c2nnn[nH]2)sc1-c1ccc(Cl)cc1C(C)C
≤ 0.25 µg/mL

###

Measured remaining activity at 500 µM, listed per entry for reference.
Subject Of Test: AcpS enzyme (Escherichia coli, UniProt P24224)
Assay Overview: Measurement of AcpS inhibition ([3H]acetyl-CoA incorporation into apo-ACP)
Type: biochemical
Details: test compound 500 uM; % activity vs blank-subtracted counts
I'd appreciate it if you included the unit after the number.

Here are 2 molecules together with their reported answers.
Cc1ccccc1-c1cc(-c2nnn[nH]2)sc1-c1ccccc1C [DNM0531]    4.38%
Cc1ccc(-c2sc(-c3nnn[nH]3)cc2-c2ccc(Cl)cc2)c2ccccc12 [DNM0572]    0.51%

Given the entry CC(C)c1ccccc1-c1cc(-c2nnn[nH]2)sc1-c1ccccc1C(C)C [DNM0534] , report its measured remaining activity at 500 µM.
0%

Using the record for c1ccc2c(c1)oc1c(-c3cc(-c4nnn[nH]4)sc3-c3cccc4c3oc3ccccc34)cccc12 [DNM0542] , report its remaining activity at 500 µM.
0.7%

# lookup: remaining activity at 500 µM of Cc1cc(Cl)ccc1-c1cc(-c2nnn[nH]2)sc1-c1ccc(C)c2ccccc12 [DNM0576]
0.15%

Query: remaining activity at 500 µM; subject: CC(C)c1cc(Cl)ccc1-c1cc(-c2nnn[nH]2)sc1-c1ccc(Cl)cc1C(C)C [DNM0548]
0.1%

Given COc1c(C)cc(-c2cc(-c3nnn[nH]3)sc2-c2cc(C)c(OC)c(C)c2)cc1C [DNM0564] , state its recorded remaining activity at 500 µM.
0.75%

Item COc1ccc(-c2cc(-c3nnn[nH]3)sc2-c2ccc(OC)c(Cl)c2)cc1Cl [DNM0565] has what recorded remaining activity at 500 µM?
0.11%

Which remaining activity at 500 µM value is on record for Cc1cc(Cl)ccc1-c1ccc(-c2ccc(Cl)cc2C)c(-c2nnn[nH]2)c1 [DNM0447] ?
0.47%

###

Catalogue of compounds with associated MIC
Test system: Enterococcus faecalis ATCC29212
Assay Overview: MIC panel of challenge pathogens (CLSI)
Type: cell-based
Details: Enterococcus faecalis ATCC29212; read-out: 100% inhibition
Numbers only here, please. The scale is µg/mL.

CC(C)c1cc(Cl)ccc1-c1cc(-c2nnn[nH]2)sc1-c1ccc(Cl)cc1C(C)C    0.25
Cc1cc(Cl)ccc1-c1cc(-c2nnn[nH]2)sc1-c1ccc(Cl)cc1C    0.5
CCCCc1cccc(-c2cc(-c3nnn[nH]3)sc2Cc2ccc(Cl)cc2)c1    1

// returns reported MIC for input Clc1ccc(Cc2sc(-c3nnn[nH]3)cc2-c2cccc(CC3CCCC3)c2)cc1
1

Would you mind telling me what MIC value was observed for Cc1cc(Cl)ccc1-c1cc(-c2nnn[nH]2)sc1-c1ccc(C)c2ccccc12 ?
1

Tell me the measured MIC of Fc1ccc(-c2cc(-c3nnn[nH]3)sc2-c2ccc(F)c3ccccc23)c2ccccc12 , please.
1

Query: MIC; subject: CC(C)c1cc(Cl)ccc1-c1cc(C(=O)O)sc1-c1ccc(Cl)cc1C(C)C
0.5

For Clc1ccc(-c2cc(-c3nnn[nH]3)sc2-c2ccc(Cl)cc2)cc1 , what is its reported MIC?
2

Param item = Cc1ccc(Cl)cc1-c1cc(-c2nnn[nH]2)sc1-c1cc(Cl)ccc1C ; retrieve measured MIC.
2

###

List of % AcpS activity @ 500 uM values.
Subject Of Test: AcpS enzyme (Escherichia coli)
Assay Overview: Measurement of AcpS inhibition ([3H]acetyl-CoA incorporation into apo-ACP)
Assay type: biochemical
Details: test compound 500 uM; % activity vs blank-subtracted counts
Note: a bare number is incomplete; add the unit.

Example results:
Cc1cc(Cl)ccc1-c1cc(-c2nn[nH]n2)cc(-c2ccc(Cl)cc2C)c1    0%
Cc1ccc(-c2cc(-c3nn[nH]n3)cc(-c3ccc(C)cc3Br)c2)c(Br)c1    0%
Clc1cccc(-c2ccccc2-c2cc(-c3nn[nH]n3)cc(-c3ccccc3-c3cccc(Cl)c3)c2)c1    2.7%
c1ccc(-c2ccccc2-c2cc(-c3nn[nH]n3)cc(-c3ccccc3-c3ccccc3)c2)cc1    0.28%
Clc1ccc(-c2cc(-c3nn[nH]n3)cc(-c3ccccc3-c3ccccc3)c2)cc1    0.1%
CN(C)c1ccc(Cl)cc1-c1cc(-c2nn[nH]n2)cc(-c2cc(Cl)ccc2N(C)C)c1    0.12%
c1ccc(Oc2ccc(-c3ccc(-c4ccc(Oc5ccccc5)cc4)c(-c4nn[nH]n4)c3)cc2)cc1    23.76%

// query % AcpS activity @ 500 uM value for entry Cc1ccc(-c2cc(-c3nn[nH]n3)cc(-c3ccc(C)cc3-c3cccc(Cl)c3)c2)c(-c2cccc(Cl)c2)c1
20.86%

###

System: Bacillus cereus NCTC6349
Assay Overview: MIC panel of challenge pathogens (CLSI)
Type: cell-based
Details: Bacillus cereus NCTC6349; read-out: MIC80 (80%)
Readings of MIC80 for the listed compounds
Dear colleague, please return just the value in µg/mL, with no unit written.

CCCCc1cccc(-c2cc(-c3nnn[nH]3)sc2Cc2ccc(Cl)cc2)c1 [DNM0606]    0.5

Give Bacillus cereus NCTC6349 MIC80 for Cc1ccc(Cl)cc1-c1cc(-c2nnn[nH]2)sc1-c1cc(Cl)ccc1C [DNM0508]
0.5

Which measured MIC80 belongs to Clc1ccc(-c2cc(-c3nnn[nH]3)sc2-c2ccc(Cl)cc2)cc1 [DNM0487] , tested on Bacillus cereus NCTC6349?
0.5

Value source: patent US9012655B2
